# System: Staphylococcus epidermidis EPI2
# Assay remarks: MIC, standard agar-dilution assay
# Type: cell-based
# Test parameters: Staphylococcus epidermidis, EPI2
Consider the cut-off 1 µg/mL. If the recorded MIC is strictly smaller, the label is rule met; if not, the label is rule not met.

Example results:
Compound	Class name
CCC1OC(=O)CC(O)C(C)C(OC2OC(C)C(O)C(N(C)C)C2O)C(CCN(C)C)CC(C)C(=O)C=CC(C)=CC1CO (stereo not drawn)	rule not met
CCC1OC(=O)CC(O)C(C)C(OC2OC(C)C(OC(C)=O)C(N(C)C)C2OC(C)=O)C(CCOC(=O)Cc2ccccc2)CC(C)C(=O)C=CC(C)=CC1CO (stereo not drawn)	rule not met
CCC1OC(=O)CC(O)C(C)C(OC2OC(C)C(O)C(N(C)C)C2O)C(CCO)CC(C)C(=O)C=CC(C)=CC1COC(=O)CCc1ccccc1 (stereo not drawn) [Compound 52, 20-Dihydro-23-O-phenylpropionyl-OMT]	rule met
CCC1OC(=O)CC(O)C(C)C(OC2OC(C)C(O)C(N(C)C)C2O)C(CCN2C(=O)c3ccccc3C2=O)CC(C)C(=O)C=CC(C)=CC1C (stereo not drawn)	rule not met
CCC1OC(=O)CC(O)C(C)C(OC2OC(C)C(O)C(N(C)C)C2O)C(CCNCc2ccccc2)CC(C)C(=O)C=CC(C)=CC1CO (stereo not drawn) [Compound 4, 20-N-Benzylamino-20-deoxy-20-dihydro-OMT]	rule not met
CCC1CC(C)C(=O)C=CC(C)=CC(CN2CCCCCCC2)C(CC)OC(=O)CC(O)C(C)C1OC1OC(C)C(O)C(N(C)C)C1O (stereo not drawn)	rule met

Data request: # TODO verify MIC < 1 µg/mL strictly for this compound: CCC1OC(=O)CC(O)C(C)C(OC2OC(C)C(O)C(N(C)C)C2O)C(CCOC(=O)Cc2ccccc2)CC(C)C(=O)C=CC(C)=CC1COC(=O)Cc1ccccc1 (stereo not drawn) [Compound 30, 20,23-Di-O-Phenylacetyl-20-dihydro-OMT]
Data returned: rule met

###

MIC: recorded values
# Tested on: Streptococcus pneumoniae Park I
# Assay remarks: MIC, standard agar-dilution assay
# Format: cell-based
# Test parameters: Streptococcus pneumoniae
State just the number; it will be interpreted in µg/mL.

Molecule	Reading unit	Value
CCC1CC(C)C(=O)C=CC(C)=CC(COC(=O)Cc2ccccc2)C(CC)OC(=O)CC(O)C(C)C1OC1OC(C)C(O)C(N(C)C)C1O (centres unmarked)	µg/mL	0.25
CCC1CC(C)C(=O)C=CC(C)=CC(CN2CCCCCCC2)C(CC)OC(=O)CC(O)C(C)C1OC1OC(C)C(O)C(N(C)C)C1O (centres unmarked)	µg/mL	1
CCC1OC(=O)CC(O)C(C)C(OC2OC(C)C(O)C(N(C)C)C2O)C(CCOc2ccccc2)CC(C)C(=O)C=CC(C)=CC1COC(=O)CCc1ccccc1 (centres unmarked)	µg/mL	0.5

Now turn to the next molecule.
Data request: Dear colleague, I am looking for the recorded MIC of the following molecule: CCC1OC(=O)CC(O)C(C)C(OC2OC(C)C(O)C(N(C)C)C2O)C(CCNC)CC(C)C(=O)C=CC(C)=CC1CO (centres unmarked) [Compound 3, 20-N-Methylamino-20-deoxy-20-dihydro-OMT]
Data returned: 16

###

# Tested on: Pasteurella multocida 60A
# Assay remarks: MIC, conventional broth-dilution microtiter test
# Format: cell-based
# Test parameters: Pasteurella multocida, 60A
Observation type: MIC (µg/mL)
Reply numerically in µg/mL, unit not repeated.

Guide cases for MIC, answers given:
> print(dat)
                                   compound  reading.unit  value
1  CCC1OC(=O)CC(O)C(C)C(OC2OC(C)C(OC(C)=O)C(N(C)C)C2OC(C)=O)C(CCOC(=O)Cc2ccccc2)CC(C)C(=O)C=CC(C)=CC1CO (stereo not drawn)         µg/mL   6.25
2  CCC1CC(C)C(=O)C=CC(C)=CC(CN2CCC(O)CC2)C(CC)OC(=O)CC(O)C(C)C1OC1OC(C)C(O)C(N(C)C)C1O (stereo not drawn)         µg/mL   12.5

Please turn your attention to the following entry.
Data request: What MIC value was documented for this compound, CCC1CC(C)C(=O)C=CC(C)=CC(CN2CCCCCCC2)C(CC)OC(=O)CC(O)C(C)C1OC1OC(C)C(O)C(N(C)C)C1O (stereo not drawn) ?
Data returned: 0.78

###

Items are presented alongside their recorded MIC.
# Tested on: Pasteurella multocida 17E
# Assay remarks: MIC, conventional broth-dilution microtiter test
# Type: cell-based
# Test parameters: Pasteurella multocida, 17E

// below: answered compounds
Compound	Target	Value
CCC1OC(=O)CC(O)C(C)C(OC2OC(C)C(O)C(N(C)C)C2O)C(CCOC(=O)Cc2ccccc2)CC(C)C(=O)C=CC(C)=CC1CO (stereo not shown) [Compound 1, 20-O-Phenylacetyl-20-dihydro-OMT]	Pasteurella multocida 17E	12.5 µg/mL
CCC1OC(=O)CC(O)C(C)C(OC2OC(C)C(OC(C)=O)C(N(C)C)C2OC(C)=O)C(CCOC(=O)Cc2ccccc2)CC(C)C(=O)C=CC(C)=CC1COC(=O)Cc1ccccc1 (stereo not shown)	Pasteurella multocida 17E	> 50 µg/mL
CCC1OC(=O)CC(O)C(C)C(OC2OC(C)C(O)C(N(C)C)C2O)C(CCOc2ccccc2)CC(C)C(=O)C=CC(C)=CC1COC(=O)CCc1ccccc1 (stereo not shown)	Pasteurella multocida 17E	3.12 µg/mL

--- query ---
Data request: Data request, read-out MIC, for CCC1OC(=O)CC(O)C(C)C(OC2OC(C)C(O)C(N(C)C)C2O)C(CCOc2ccccc2)CC(C)C(=O)C=CC(C)=CC1COc1ccccc1 (stereo not shown) [Compound 32, 20,23-Di-O-phenyl-20-dihydro-OMT]
Data returned: 3.12 µg/mL

###

# System: Klebsiella pneumoniae KAE
# Assay remarks: MIC, standard agar-dilution assay
# Format: cell-based
# Test parameters: Klebsiella pneumoniae
# Description: Certain of the derivatives are active against some gram-negative bacteria, such as Pasteurella species. The MIC's in Table II were determined by standard agar-dilution assays. The MIC's in Table III were obtained using a conventional broth-dilution microtiter test.
Observation type: MIC

Example cases with answers are listed next.
Compound	Value
CCC1OC(=O)CC(O)C(C)C(OC2OC(C)C(O)C(N(C)C)C2O)C(CCO)CC(C)C(=O)C=CC(C)=CC1CN1CCCCCCC1 (stereo not drawn) [Compound 58]	64 µg/mL
CCC1OC(=O)CC(O)C(C)C(OC2OC(C)C(OC(C)=O)C(N(C)C)C2OC(C)=O)C(CCOC(=O)Cc2ccccc2)CC(C)C(=O)C=CC(C)=CC1CO (stereo not drawn) [Compound 54]	> 128 µg/mL
CCC1OC(=O)CC(O)C(C)C(OC2OC(C)C(OC(C)=O)C(N(C)C)C2OC(C)=O)C(CCOC(=O)Cc2ccccc2)CC(C)C(=O)C=CC(C)=CC1COC(=O)Cc1ccccc1 (stereo not drawn) [Compound 55]	> 128 µg/mL
CCC1OC(=O)CC(O)C(C)C(OC2OC(C)C(O)C(N(C)C)C2O)C(CCOC(=O)Cc2ccccc2)CC(C)C(=O)C=CC(C)=CC1CO (stereo not drawn) [Compound 1, 20-O-Phenylacetyl-20-dihydro-OMT]	> 128 µg/mL
CCC1OC(=O)CC(O)C(C)C(OC2OC(C)C(O)C(N(C)C)C2O)C(CCOC(=O)Cc2ccccc2)CC(C)C(=O)C=CC(C)=CC1COC(=O)Cc1ccccc1 (stereo not drawn) [Compound 30, 20,23-Di-O-Phenylacetyl-20-dihydro-OMT]	> 128 µg/mL

API: the following record is the query input.
Data request: Consider the compound CCC1CC(C)C(=O)C=CC(C)=CC(COC(=O)Cc2ccccc2)C(CC)OC(=O)CC(O)C(C)C1OC1OC(C)C(O)C(N(C)C)C1O (stereo not drawn) [Compound 41] and give its measured MIC.
Data returned: > 128 µg/mL

###

# Test system: Pasteurella hemolytica 22C
# Assay remarks: MIC, conventional broth-dilution microtiter test
# Type: cell-based
# Test parameters: broth-dilution microtiter; Pasteurella hemolytica 22C; read-out: MIC
# Method: Certain of the derivatives are active against some gram-negative bacteria, such as Pasteurella species. The MIC's in Table II were determined by standard agar-dilution assays. The MIC's in Table III were obtained using a conventional broth-dilution microtiter test.
# note: boundary value 10 µg/mL maps to F; MIC below it maps to T

Please review the following examples before continuing.
Compound	Class name
CCC1CC(C)C(=O)C=CC(C)=CC(CN2CCC(O)CC2)C(CC)OC(=O)CC(O)C(C)C1OC1OC(C)C(O)C(N(C)C)C1O (centres unmarked)	F
CCC1OC(=O)CC(O)C(C)C(OC2OC(C)C(O)C(N(C)C)C2O)C(CCOc2ccccc2)CC(C)C(=O)C=CC(C)=CC1COc1ccccc1 (centres unmarked) [Compound 32, 20,23-Di-O-phenyl-20-dihydro-OMT]	F
CCC1OC(=O)CC(O)C(C)C(OC2OC(C)C(OC3CC(C)(O)C(O)C(C)O3)C(N(C)C)C2O)C(CCN2C(=O)c3ccccc3C2=O)CC(C)C(=O)C=CC(C)=CC1CN1C(=O)c2ccccc2C1=O (centres unmarked)	F
CCC1OC(=O)CC(O)C(C)C(OC2OC(C)C(O)C(N(C)C)C2O)C(CCOc2ccccc2)CC(C)C(=O)C=CC(C)=CC1CN1CCCCCCC1 (centres unmarked)	T
CCC1OC(=O)CC(O)C(C)C(OC2OC(C)C(O)C(N(C)C)C2O)C(CCNC)CC(C)C(=O)C=CC(C)=CC1CO (centres unmarked) [Compound 3, 20-N-Methylamino-20-deoxy-20-dihydro-OMT]	F

Data request: A record lists CCC1OC(=O)CC(O)C(C)C(OC2OC(C)C(OC3CC(C)(O)C(O)C(C)O3)C(N(C)C)C2O)C(CCNCCc2ccccc2)CC(C)C(=O)C=CC(C)=CC1CO (centres unmarked) . Is its MIC below 10 µg/mL?
Data returned: F

Data request: Below 10 µg/mL on MIC? Entry CCC1CC(C)C(=O)C=CC(C)=CC(CN2CCCCCCC2)C(CC)OC(=O)CC(O)C(C)C1OC1OC(C)C(OC(C)=O)C(N(C)C)C1OC(C)=O (centres unmarked)
Data returned: T

Data request: Hello, I'm reviewing records and need to know if MIC of CCC1OC(=O)CC(O)C(C)C(OC2OC(C)C(O)C(N(C)C)C2O)C(CCN2C(=O)c3ccccc3C2=O)CC(C)C(=O)C=CC(C)=CC1CO (centres unmarked) [Compound 6, 20-N-Phthalimido-20-deoxy-20-dihydro-OMT] is below 10 µg/mL. Could you check?
Data returned: F

Data request: Take the compound CCC1OC(=O)CC(O)C(C)C(OC2OC(C)C(O)C(N(C)C)C2O)C(CCOc2ccccc2)CC(C)C(=O)C=CC(C)=CC1COC(=O)CCc1ccccc1 (centres unmarked) and say whether its MIC is less than 10 µg/mL.
Data returned: F

Data request: Quick check: does CCC1OC(=O)CC(O)C(C)C(OC2OC(C)C(OC3CC(C)(O)C(O)C(C)O3)C(N(C)C)C2O)C(CCNCc2ccccc2)CC(C)C(=O)C=CC(C)=CC1C (centres unmarked) have MIC under 10 µg/mL?
Data returned: F

Data request: Record CCC1CC(C)C(=O)C=CC(C)=CC(CSc2ccccc2)C(CC)OC(=O)CC(O)C(C)C1OC1OC(C)C(O)C(N(C)C)C1O (centres unmarked) : is its MIC strictly below 10 µg/mL?
Data returned: F

Every entry's value here was drawn from patent US4468511A.
